Entries with their measured log10(Ki), system 5-hydroxytryptamine receptor 1A (Rattus norvegicus, UniProt P19327):
Log scale reminder: Ki in nM, then log10 taken.

Task: Entry O=C(NC[C@H]1CCCN1CCc1ccccc1)C1CCCCC1 has what log10(Ki)?
Output: 2.28

Task: Entry O=C(NC1CCN(CCc2ccccc2F)C1)C12CC3CC(CC(C3)C1)C2 (stereo unspecified) has what log10(Ki)?
Output: 1.30

Task: Entry O=C(NC[C@@H]1CCCN1CCc1ccccc1)C1CCCCC1 has what log10(Ki)?
Output: -0.31

Task: Entry O=C(NC1CCN(Cc2ccccc2)C1)C12CC3CC(CC(C3)C1)C2 (stereo unspecified) has what log10(Ki)?
Output: 1.96

Task: Entry O=C(N[C@H]1CCN(CCc2ccccc2)C1)C12CC3CC(CC(C3)C1)C2 has what log10(Ki)?
Output: 1.41

Task: Entry O=C(NC1CCN(CCc2ccc(Cl)cc2)C1)C12CC3CC(CC(C3)C1)C2 (stereo unspecified) has what log10(Ki)?
Output: 1.89

Task: Entry O=C(N[C@@H]1CCN(CCc2ccccc2)C1)c1ccccc1 has what log10(Ki)?
Output: 1.15

Task: Entry O=C(N[C@H]1CCN(CCc2ccccc2)C1)C1CCCCC1 has what log10(Ki)?
Output: 2.20

Task: Entry O=C(NC1CCN(CCCCc2ccccc2)C1)C12CC3CC(CC(C3)C1)C2 (stereo unspecified) has what log10(Ki)?
Output: 0.04

Task: Entry O=C(N[C@H]1CCN(CCc2ccc(F)cc2)C1)C12CC3CC(CC(C3)C1)C2 has what log10(Ki)?
Output: 1.90

Task: Entry O=C(N[C@@H]1CCN(CCc2ccccc2)C1)C1CCCCC1 has what log10(Ki)?
Output: 0.04
